- test-summary: modulators of CIT2-GFP expression in yeast, confirmation, S. cerevisiae, GFP fusion, cherry picks, mother/daughter gates (AID 2274)
- stated-conditions: S. cerevisiae CIT2-GFP strain, flow cytometry, 3 h; measured here: mother cell gate; at 10 µM; stronger effect = higher value
Catalogue of GFP response, % of DMSO values
State just the number; it will be interpreted in %.

The examples below pair each entry with its known result.
| compound | readout-units | numeric-value |
| --- | --- | --- |
| Cc1nn2c(NCc3ccccn3)c3c(nc2c1-c1ccccc1)CCC3 | % | 85.9 |
| O=[N+]([O-])/C=C/c1cn(Cc2ccccc2)c2ccccc12 | % | 91.2 |
| S=c1[nH]nc(NCCCN2CCOCC2)s1 | % | 103 |

Exercise: Find the recorded GFP response, % of DMSO belonging to O=C1CC(Sc2nnc(-c3ccccc3O)o2)C(=O)N1c1ccccc1 (stereo unspecified) and report it.
Key: 106

Exercise: # input compound: COC(=O)C1=C(C)NC(C)=C(C(=O)OC)C1c1ccc(OC(=O)c2oc3ccccc3c2C)c(OC)c1 ; wanted: its GFP response, % of DMSO
Key: 104

Exercise: Need GFP response, % of DMSO, item O=C(NCc1ccccc1)c1nc(S(=O)(=O)Cc2ccccc2)ncc1Cl
Key: 98.7

Exercise: Param item = C(=N\Nc1nc(-c2cccnc2)nc2ccccc12)/c1ccccc1 ; retrieve measured GFP response, % of DMSO.
Key: 103

Exercise: Record request: GFP response, % of DMSO value, item O=C(Nc1nc(-c2ccccc2)cs1)c1cccs1
Key: 98.7

Exercise: Reported GFP response, % of DMSO for Oc1ccc(N=Nc2ccccc2)o1 : what is it?
Key: 110

Exercise: Given the entry COc1cc(NC(=O)c2ccccc2)ccc1NC(=O)c1cc2ccccc2o1 , report its measured GFP response, % of DMSO.
Key: 100

Exercise: What measured GFP response, % of DMSO goes with Cc1nnc(NC(=O)c2nc(S(=O)(=O)Cc3ccccc3)ncc2Cl)s1 ?
Key: 104

Exercise: Param item = CC1CN(c2nnnn2-c2ccccc2)CC(C)O1 (stereo unspecified) ; retrieve measured GFP response, % of DMSO.
Key: 99.7

Exercise: Param item = O=C(Oc1oc(-c2ccco2)nc1C=Nc1ccc(Cl)cc1)c1ccco1 ; retrieve measured GFP response, % of DMSO.
Key: 83.8

Exercise: Endpoint output: GFP response, % of DMSO of Oc1c(CN2CCN(c3ccccc3)CC2)cc(Br)c2cccnc12 . Value?
Key: 93.8

Exercise: What does the record list as GFP response, % of DMSO for CCN(CC)c1ccc(/C=C/c2ccc3ccc(OC)cc3[n+]2CC)cc1 ?
Key: 104

Exercise: Form field: reported GFP response, % of DMSO of COc1cc(NC(=O)c2ccc(C)cc2C)ccc1NC(=O)c1cc2ccccc2o1
Key: 97.1

Exercise: Looking for the measured GFP response, % of DMSO of CC(C)(C)n1nc(-c2ccc(Cl)cc2)c2c(N)ncnc21 , can you help?
Key: 42.4

----------
- test-summary: modulators of MEP2-GFP levels in yeast, confirmation, S. cerevisiae, flow cytometry GFP, cherry picks (AID 2272);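 further: ratio of well signal to plate DMSO mean so 100% equals DMSO level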
- stated-conditions: S. cerevisiae MEP2-GFP strain, 3 h, at 10 µM, stronger effect = higher value
This section presents compounds with their documented GFP response vs DMSO values.
Only the number, expressed in %, is required.

Sample answers from the record:
| compound | readout-units | numeric-value |
| --- | --- | --- |
| COc1ccc(N2CCN(C(=O)C3CCCN(S(=O)(=O)c4ccc(C)cc4)C3)CC2)cc1 (configuration not stated) | % | 105 |
| Cc1ccc2c(c1)C1CN(C)CCC1N2C(=O)c1ccc(Cl)c(S(=O)(=O)N2CCOCC2)c1 (configuration not stated) | % | 102 |
| Cc1nnc(NC(=O)c2nc(S(=O)(=O)Cc3ccccc3)ncc2Cl)s1 | % | 99.3 |
| CCOC(=O)Cc1csc(NC(=O)c2sc3nc4cc(C)ccc4cc3c2N)n1 | % | 114 |
| COc1ccc(NC(=O)C2C3C=CC(C3)C2C(=O)NCc2ccco2)c(OC)c1 (configuration not stated) | % | 101 |

Proceed to the following item.
Exercise: Dear colleague, I am looking for the recorded GFP response vs DMSO of the following compound: COc1ccc(-c2nc3cccc(C)n3c2NCc2ccco2)cc1OC
Key: 97.2
